# System: 616215-338-R-J1-PDC complex spheroid viability
# Protocol details: Anticancer human tumor 616215-338-R-J1-PDC patient-derived colon adenocarcinoma cell line growth inhibition [RAS]
# Condition details: second compound 0.00949 µM; first compound 0.00949 µM; active compounds read low
Readings of viability, T/C for the listed compounds

Compound | Display unit | viability, T/C
CC1(C)CCC(Nc2ncc(C(F)(F)F)c(-c3c[nH]c4c(P(C)(C)=O)c(C#N)ccc34)n2)CN1 (centres undefined) + CCn1c(-c2cccnc2C(C)OC)c2c3cc(ccc31)N1CCOC(CC(NC(=O)C(C(C)C)N(C)C(=O)C3(F)CCN(C(=O)C#CC(C)(C)N(C)C)CC3)C(=O)N3CCCC(N3)C(=O)OCC(C)(C)C2)C1 | % | 57
CC1(C)CCC(Nc2ncc(C(F)(F)F)c(-c3c[nH]c4c(P(C)(C)=O)c(C#N)ccc34)n2)CN1 (centres undefined) + CCn1c(-c2cc(N3CCN(C)CC3)cnc2C(C)OC)c2c3cc(ccc31)-c1csc(n1)CC(NC(=O)C1CC1C)C(=O)N1CCCC(N1)C(=O)OCC(C)(C)C2 | % | 44.6
CCc1c2c(nc3ccc(O)cc13)-c1cc3c(c(=O)n1C2)COC(=O)[C@]3(O)CC + CCn1c(-c2cccnc2C(C)OC)c2c3cc(ccc31)N1CCOC(CC(NC(=O)C(C(C)C)N(C)C(=O)C3(F)CCN(C(=O)C#CC(C)(C)N(C)C)CC3)C(=O)N3CCCC(N3)C(=O)OCC(C)(C)C2)C1 | % | 58.1
CCc1c2c(nc3ccc(O)cc13)-c1cc3c(c(=O)n1C2)COC(=O)[C@]3(O)CC + CCn1c(-c2cc(N3CCN(C)CC3)cnc2C(C)OC)c2c3cc(ccc31)-c1csc(n1)CC(NC(=O)C1CC1C)C(=O)N1CCCC(N1)C(=O)OCC(C)(C)C2 | % | 21

====

# System: 616215-338-R-J1-PDC complex spheroid viability
# Protocol details: Anticancer human tumor 616215-338-R-J1-PDC cell line growth inhibition [RAS];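 further: spheroids exposed to agents for seven days before viability readout; 100% = DMSO vehicle control viability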
# Condition details: second compound 0.1 µM; first compound 0.00316 µM; active compounds read low

Compound | viability, T/C / %
C=CC(=O)Nc1cc(Nc2nccc(-c3cn(C)c4ccccc34)n2)c(OC)cc1N(C)CCN(C)C + C=CC(=O)N1CCN(c2nc(OCC3CCCN3C)nc3c(F)c(-c4nc(N)cc(C)c4C(F)(F)F)c(Cl)cc23)C(C)C1 | 103
CCN1CCN(Cc2ccc(Nc3ncc(F)c(-c4cc(F)c5nc(C)n(C(C)C)c5c4)n3)nc2)CC1 + C#Cc1c(F)ccc2cc(O)cc(-c3ncc4c(N5CC6CCC(C5)N6)nc(OCC56CCCN5CC(F)C6)nc4c3F)c12 | 97.9
CCN1CCN(Cc2ccc(Nc3ncc(F)c(-c4cc(F)c5nc(C)n(C(C)C)c5c4)n3)nc2)CC1 + C=CC(=O)N1CCN(c2nc(OCC3CCCN3C)nc3c(F)c(-c4nc(N)cc(C)c4C(F)(F)F)c(Cl)cc23)C(C)C1 | 102
C=CC(=O)N1CCN(c2nc(OCC3CCCN3C)nc3c(F)c(-c4nc(N)cc(C)c4C(F)(F)F)c(Cl)cc23)C(C)C1 (stereo unspecified) + C#Cc1c(F)ccc2cc(O)cc(-c3ncc4c(N5CC6CCC(C5)N6)nc(OCC56CCCN5CC(F)C6)nc4c3F)c12 | 121
CC(C)n1nc(-c2ccc3oc(N)nc3c2)c2c(N)ncnc21 + C=CC(=O)N1CCN(c2nc(OCC3CCCN3C)nc3c(F)c(-c4nc(N)cc(C)c4C(F)(F)F)c(Cl)cc23)C(C)C1 | 111
Nc1ccn(C2OC(CO)C(O)C2(F)F)c(=O)n1 (stereo unspecified) + C=CC(=O)N1CCN(c2nc(OCC3CCCN3C)nc3c(F)c(-c4nc(N)cc(C)c4C(F)(F)F)c(Cl)cc23)C(C)C1 | 88.9

Source listed as PubChem BioAssay AID2060898.
